This collection of values is drawn from patent US11306078B2.

Task for the reader: assign each of the following molecules its reported pIC50.
assayedSystem: human chemokine receptor CXCR7 (Homo sapiens (Human))
protocolDetails: Tango CXCR7-bla U2OS beta-arrestin recruitment assay (beta-lactamase reporter, FRET), antagonism of CXCL12/SDF1-α
Format: cell-based
experimentalConditions: antagonistic effect on CXCR7; Tango CXCR7-bla U2OS cells, CXCL12/SDF1-α at its EC80
Scale: negative log10 of molar concentration, which is what pIC50 denotes.

input: Dear colleague, please send me the reported pIC50 for CN(C)C(=O)[C@@H]1CN(C2CCCC23CC3)CC[C@H]1NC(=O)c1cc(-c2ccc(F)cc2F)on1 (stereo partly shown) [Example 2.047] when you can.
output: 6.84

input: Dear colleague, please send me the reported pIC50 for O=C(N[C@@H]1CCN(CC2CC2)C[C@H]1C(=O)NCCc1ccccn1)c1cc(-c2ccc(F)cc2F)on1 [Example 2.08] when you can.
output: 6.51

input: Dear colleague, please send me the reported pIC50 for CON(C)C(=O)[C@@H]1CN(CC2CC2)CC[C@H]1NC(=O)c1cc(-c2ccc(F)cc2F)on1 [Example 4.069] when you can.
output: 6.82

input: Dear colleague, please send me the reported pIC50 for CCN(CC)C(=O)[C@@H]1CN(CC2CC2)CC[C@H]1NC(=O)c1cc(-c2ccc(F)cc2F)on1 [Example 4.071] when you can.
output: 6.67

input: Dear colleague, please send me the reported pIC50 for CC1(NC(=O)[C@@H]2CN(C3CCCCC3)CC[C@H]2NC(=O)c2cc(-c3ccc(F)cc3F)on2)CCOC1 (relative stereo) [Example 1.084] when you can.
output: 6.65

input: Dear colleague, please send me the reported pIC50 for CCN1CC[C@H](NC(=O)c2cc(-c3ccc(F)cc3F)on2)[C@@H](C(=O)NC(C)(C)c2ncccn2)C1 [Example 4.096] when you can.
output: 7.48

input: Dear colleague, please send me the reported pIC50 for O=C(N[C@@H]1CCN(CC2CC2)C[C@H]1C(=O)NC1(c2ncccn2)CC1)c1noc(-c2ccc(F)cc2)c1F (racemic) [Example 3.021] when you can.
output: 7.40

###

assayedSystem: human chemokine receptor CXCR7 (Homo sapiens (Human), UniProt P25106)
Sequence (P25106 whole entry): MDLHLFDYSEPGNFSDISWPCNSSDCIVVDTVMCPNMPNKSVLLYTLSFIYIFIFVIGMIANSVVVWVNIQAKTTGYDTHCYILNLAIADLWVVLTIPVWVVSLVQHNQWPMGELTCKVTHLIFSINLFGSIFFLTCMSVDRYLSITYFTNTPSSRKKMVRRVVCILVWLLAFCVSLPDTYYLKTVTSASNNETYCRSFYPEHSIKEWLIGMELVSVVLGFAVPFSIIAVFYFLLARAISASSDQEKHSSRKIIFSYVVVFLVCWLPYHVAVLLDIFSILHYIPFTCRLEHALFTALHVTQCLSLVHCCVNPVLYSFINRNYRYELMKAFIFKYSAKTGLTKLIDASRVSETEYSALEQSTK
protocolDetails: Tango CXCR7-bla U2OS beta-arrestin recruitment assay (beta-lactamase reporter, FRET), antagonism of CXCL12/SDF1-α
Format: cell-based
experimentalConditions: antagonistic effect on CXCR7; Tango CXCR7-bla U2OS cells, CXCL12/SDF1-α at its EC80
pIC50: −log10 of the molar value.
The label depends only on pIC50: T if it is at least 7, F if it is smaller.

input: Check this compound for pIC50 at or above 7: O=C(N[C@@H]1CCN([C@@H]2CCCC[C@H]2O)C[C@H]1C(=O)NC1(c2ncccn2)CC1)c1cc(-c2ccc(F)cc2F)on1
output: T

input: Check this compound for pIC50 at or above 7: O=C(N[C@H]1CCN(CC2CC2)C[C@@H]1C(=O)NC1(c2ncccn2)CC1)c1cc(-c2ccc(F)c(F)c2)on1
output: F

input: Check this compound for pIC50 at or above 7: O=C(N[C@@H]1CCN(C2CCCC2)C[C@H]1C(=O)N1CCC1)c1cc(-c2c(F)cc(F)cc2F)on1 (racemic)
output: F

input: Check this compound for pIC50 at or above 7: O=C(N[C@@H]1CCN(C2CCCCC2)C[C@H]1C(=O)NCc1ccncn1)c1cc(-c2ccc(F)cc2F)on1 (racemic)
output: F

###

assayedSystem: human chemokine receptor CXCR7 (Homo sapiens (Human), UniProt P25106)
protocolDetails: Tango CXCR7-bla U2OS beta-arrestin recruitment assay (beta-lactamase reporter, FRET), antagonism of CXCL12/SDF1-α
Format: cell-based
experimentalConditions: antagonistic effect on CXCR7; Tango CXCR7-bla U2OS cells, CXCL12/SDF1-α at its EC80
parameter: pIC50
Scale: negative log10 of molar concentration, which is what pIC50 denotes.

input: Dear colleague, please send me the reported pIC50 for CN(C)C(=O)[C@@H]1CN(C2CCCCC2)CC[C@H]1NC(=O)c1noc(-c2ccc(F)cc2F)n1 (racemic) [Example 3.007] when you can.
output: 6.79

input: Dear colleague, please send me the reported pIC50 for CC(NC(=O)[C@@H]1CN(C2CCCCC2)CC[C@H]1NC(=O)c1cc(-c2ccc(F)cc2F)on1)C1CCC1 (relative stereo) [Example 1.078] when you can.
output: 6.71

input: Dear colleague, please send me the reported pIC50 for C[C@@H](NC(=O)[C@@H]1CN(CC2CC2)CC[C@H]1NC(=O)c1cc(-c2c(F)cc(F)cc2F)on1)C1CCC1 (single isomer, unassigned) [Example 1.139b] when you can.
output: 7.54

###

assayedSystem: human chemokine receptor CXCR7 (Homo sapiens (Human))
protocolDetails: Tango CXCR7-bla U2OS beta-arrestin recruitment assay (beta-lactamase reporter, FRET), antagonism of CXCL12/SDF1-α
Type: cell-based
experimentalConditions: antagonistic effect on CXCR7; Tango CXCR7-bla U2OS cells, CXCL12/SDF1-α at its EC80
parameter: log10 of IC50 (log10 of the value in µM)
A difference of one corresponds to tenfold IC50; all values are log10 with IC50 in µM.

input: Dear colleague, please send me the reported log10 of IC50 for CN(C)C(=O)[C@@H]1CN([C@@H]2C[C@@H]3CC[C@@H]2C3)CC[C@H]1NC(=O)c1cc(-c2ccc(F)cc2F)on1 when you can.
output: -0.79

input: Dear colleague, please send me the reported log10 of IC50 for O=C(N[C@@H]1CCN(C2CCCCC2)C[C@H]1C(=O)N1CCC(c2ccccc2)C1)c1cc(-c2ccc(F)cc2F)on1 (stereo partly drawn) when you can.
output: -0.25

input: Dear colleague, please send me the reported log10 of IC50 for O=C(N[C@H]1CCN(CC2CC2)C[C@@H]1C(=O)NC1(c2ccccn2)CC1)c1cn(-c2ccc(F)cc2F)nn1 when you can.
output: -1.21

input: Dear colleague, please send me the reported log10 of IC50 for C[C@@H](NC(=O)[C@@H]1CN(CC2CC2)CC[C@H]1NC(=O)c1cc(-c2ccc(F)cc2F)no1)c1cnccn1 (relative stereo) when you can.
output: -0.09

input: Dear colleague, please send me the reported log10 of IC50 for C[C@@H](NC(=O)[C@@H]1CN(C2CCCC2)CC[C@H]1NC(=O)c1cn(-c2ccc(F)cc2F)nn1)c1cnccn1 (relative stereo) when you can.
output: -0.91

input: Dear colleague, please send me the reported log10 of IC50 for COc1ccccc1C(C)NC(=O)[C@H]1CN(CC2CC2)CC[C@@H]1NC(=O)c1cc(-c2ccc(F)cc2F)on1 (single isomer, unassigned) [Example 4.072a] when you can.
output: -2.10

###

assayedSystem: human chemokine receptor CXCR7 (Homo sapiens (Human), UniProt P25106)
protocolDetails: Tango CXCR7-bla U2OS beta-arrestin recruitment assay (beta-lactamase reporter, FRET), antagonism of CXCL12/SDF1-α;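 further: compounds preincubated 15 min before CXCL12 addition, then 22 h at 37 °C, FRET emission ratio read with CCF4-AM substrate after 2 h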
Format: cell-based
experimentalConditions: antagonistic effect on CXCR7; Tango CXCR7-bla U2OS cells, CXCL12/SDF1-α at its EC80
parameter: IC50 (nM)
Give the quantity in nM, number only.

input: Dear colleague, please send me the reported IC50 for O=C(N[C@H]1CCN(CC2CC2)C[C@@H]1C(=O)N1CC[C@@H]1c1ncccn1)c1cc(-c2ccc(F)cc2F)on1 [Example 4.079a] when you can.
output: 186

input: Dear colleague, please send me the reported IC50 for COCCNC(=O)[C@@H]1CN(C2CCCCC2)CC[C@H]1NC(=O)c1cc(-c2ccc(F)cc2F)on1 (racemic) when you can.
output: 414

input: Dear colleague, please send me the reported IC50 for CC(C1CC1)N1CC[C@@H](NC(=O)c2cc(-c3ccc(F)cc3F)on2)[C@H](C(=O)N(C)C)C1 (stereo partly shown) [Example 2.046] when you can.
output: 16

input: Dear colleague, please send me the reported IC50 for CN(C)C(=O)[C@@H]1CN(C2CCCC2)CC[C@H]1NC(=O)c1cc(-c2ccc(F)cc2F)on1 [Example 2.019] when you can.
output: 126

input: Dear colleague, please send me the reported IC50 for C[C@@H](NC(=O)[C@@H]1CN(CC2CC2)CC[C@H]1NC(=O)c1noc(-c2ccc(F)cc2F)n1)c1ccccn1 (relative stereo) when you can.
output: 82

input: Dear colleague, please send me the reported IC50 for CC(C)(C#N)NC(=O)[C@@H]1CN(C2CCCCC2)CC[C@H]1NC(=O)c1cc(-c2ccc(F)cc2F)on1 [Example 4.019] when you can.
output: 151

input: Dear colleague, please send me the reported IC50 for CC(C)(C)N1CC[C@@H](NC(=O)c2cc(-c3ccc(F)cc3F)on2)[C@H](C(=O)NC2(c3ncccn3)CC2)C1 [Example 4.101a] when you can.
output: 18

input: Dear colleague, please send me the reported IC50 for CO[C@@H]1CCCC[C@H]1N1CC[C@@H](NC(=O)c2cc(-c3ccc(F)cc3F)on2)[C@H](C(=O)N(C)C)C1 when you can.
output: 132

input: Dear colleague, please send me the reported IC50 for C[C@@H]1CCC[C@H]1N1CC[C@@H](NC(=O)c2cc(-c3ccc(F)cc3F)no2)[C@H](C(=O)N[C@H](C)C2CCC2)C1 (relative stereo) when you can.
output: 638

input: Dear colleague, please send me the reported IC50 for CCN1CC[C@@H](NC(=O)c2cc(-c3ccc(F)cc3F)on2)[C@H](C(=O)N(C)CCc2ccccc2)C1 when you can.
output: 118

input: Dear colleague, please send me the reported IC50 for O=C(N[C@H]1CCN(C2CCCC2)C[C@@H]1C(=O)NC1(c2ccccn2)CC1)c1cn(-c2ccc(F)cc2F)nn1 when you can.
output: 95

input: Dear colleague, please send me the reported IC50 for CN(C)C(=O)[C@@H]1CN(C2CCC(F)(F)CC2)CC[C@H]1NC(=O)c1cc(-c2ccc(F)cc2F)on1 when you can.
output: 745

input: Dear colleague, please send me the reported IC50 for O=C(N[C@@H]1CCN(C2CCCCC2)C[C@H]1C(=O)N1CCOCC1)c1cc(-c2ccc(F)cc2F)on1 (racemic) when you can.
output: 275

input: Dear colleague, please send me the reported IC50 for O=C(N[C@@H]1CCN(CC2CC2)C[C@H]1C(=O)NC1(c2ncccn2)CC1)c1cc(-c2c(F)cc(F)cc2F)on1 (racemic) [Example 1.177] when you can.
output: 5

input: Dear colleague, please send me the reported IC50 for Cc1cccc(CCNC(=O)[C@@H]2CN(C3CCCCC3)CC[C@H]2NC(=O)c2cc(-c3ccc(F)cc3F)on2)c1 (racemic) when you can.
output: 16

input: Dear colleague, please send me the reported IC50 for C[C@@H](NC(=O)[C@H]1CN(C2CCCCC2)CC[C@@H]1NC(=O)c1cn(-c2ccc(F)cc2F)nn1)c1ccccn1 (single isomer, unassigned) [Example 1.117a] when you can.
output: 39

input: Dear colleague, please send me the reported IC50 for C[C@@H](NC(=O)[C@@H]1CN(C2CCCCC2)CC[C@H]1NC(=O)c1cc(-c2c(F)cc(F)cc2F)on1)c1cnccn1 (racemic) [Example 1.129] when you can.
output: 105

input: Dear colleague, please send me the reported IC50 for C[C@@H](NC(=O)[C@]1(C)CN(C2CCCCC2)CC[C@H]1NC(=O)c1cc(-c2ccc(F)cc2F)on1)c1ccccn1 (relative stereo) when you can.
output: 368

input: Dear colleague, please send me the reported IC50 for O=C(N[C@H]1CCN(CC2CC2)C[C@@H]1C(=O)NC1(c2ncccc2F)CC1)c1cc(-c2ccc(F)cc2F)on1 when you can.
output: 1

input: Dear colleague, please send me the reported IC50 for O=C(N[C@@H]1CCN(C2CCCCC2)C[C@H]1C(=O)Nc1cccnc1)c1cc(-c2ccc(F)cc2F)on1 (racemic) when you can.
output: 319

input: Dear colleague, please send me the reported IC50 for C[C@@H]1CCC[C@H]1N1CC[C@@H](NC(=O)c2cc(-c3ccc(F)cc3F)on2)[C@H](C(=O)N(C)C)C1 [Example 2.023b] when you can.
output: 26

input: Dear colleague, please send me the reported IC50 for O=C(N[C@H]1CCN(CC2CC2)C[C@@H]1C(=O)NC1(c2cccc(Cl)c2)CC1)c1cc(-c2ccc(F)cc2F)on1 when you can.
output: 1

input: Dear colleague, please send me the reported IC50 for CN(C)C(=O)[C@@H]1CN(C2CCCCC2)CC[C@H]1NC(=O)c1nnc(-c2ccc(F)cc2F)o1 (single isomer, unassigned) [Example 3.003b] when you can.
output: 54

input: Dear colleague, please send me the reported IC50 for CN(C)C(=O)[C@@H]1CN([C@@H]2CCC[C@H]2CO)CC[C@H]1NC(=O)c1cc(-c2ccc(F)cc2F)on1 when you can.
output: 269

input: Dear colleague, please send me the reported IC50 for C[C@@H](NC(=O)[C@@H]1CN(C2CCCCC2)CC[C@H]1NC(=O)c1cc(-c2c(F)cc(F)cc2F)on1)c1ccccn1 (single isomer, unassigned) [Example 1.121b] when you can.
output: 2
